Hey, just so you know, these numbers are from ChEMBL document CHEMBL3393049.

What MIC was measured for each of the following?
tested on: Mycobacterium tuberculosis variant bovis BCG; assay: Antimycobacterial activity against Mycobacterium bovis BCG ATCC 35734 assessed as reduction in bacterial growth incubated for 6 days by MABA method; assay type: functional; conditions: ATCC 35734, 144 h
Your answer should be a plain number; it is taken to be in µM.

Param readout= MIC; system= Mycobacterium tuberculosis variant bovis BCG; entry= NNC(=O)c1ccncc1 [ISONIAZID] ; returns value.
0.5

# get_value(readout= MIC, system= Mycobacterium tuberculosis variant bovis BCG) for C[C@H]1COC2(CCN(c3nc(=O)c4cc(C(F)(F)F)cc([N+](=O)[O-])c4[s+]3[O-])CC2)O1 (stereo not given in full)
0.21

// lookup MIC | system=Mycobacterium tuberculosis variant bovis BCG | key= CO[C@H]1/C=C/O[C@@]2(C)Oc3c(C)c(O)c4c(O)c(c(/C=N/N5CCN(C)CC5)c(O)c4c3C2=O)NC(=O)/C(C)=C\C=C\[C@H](C)[C@H](O)[C@@H](C)[C@@H](O)[C@@H](C)[C@H](OC(C)=O)[C@@H]1C [RIFAMPIN]
0.02
